Cited source: patent US10183937B2

# experiment: In vitro metabolic stability in liver microsomes (calculation of CL and Fmax)
# Type: in vitro ADME, human
# conditionNotes: 1 μM, maximal oral bioavailability calculated from half-life
# Experimental: In Vitro Metabolic Stability Assays Determination of In Vitro Metabolic Stability in Microsomes (Including Calculation of Hepatic In Vivo Blood Clearance (CL) and of Maximal Oral Bioavailability (Fmax)) […] The half-life of a test compound was determined from the concentration-time plot. From the half-life (kel: slope of concentration-time plot; half-life=ln 2/kel) the intrinsic clearances were calculated. […]
So basically: Human liver microsome Fmax at 70% or higher? That is True. Lower than 70%? That is False.

Hello, I need to know if `Cc1cnc(-c2cc(O[C@H]3CCOC3)cc(C(=O)N[C@H](C)c3cnc(C(F)(F)F)nc3)c2)s1` has measured Human liver microsome Fmax not below 70%. Thanks! False

Assess whether reported Human liver microsome Fmax for Cc1cnc(-c2cc(OC(C)C(C)O)cc(C(=O)N[C@H](C)c3cnc(C(F)(F)F)nc3)c2)s1 (single isomer, unassigned) [Example 340] sits at 70% or higher. True

Is the recorded value of Human liver microsome Fmax equal to or greater than 70% for this compound? Cc1cnc(-c2cc(OC(C)C(C)O)cc(C(=O)N[C@H](C)c3cnc(C(F)(F)F)nc3)c2)s1 (single isomer, unassigned) [Example 339] True

Entry Cc1cnc(-c2cc(OC(C)C(C)O)cc(C(=O)N[C@H](C)c3cnc(C(F)(F)F)nc3)c2)s1 (single isomer, unassigned) [Example 163] : is its Human liver microsome Fmax no less than 70%? True

Please check the record `CCc1cnc(-c2cc(OC[C@H]3CN(C)CCO3)cc(C(=O)N[C@H](C)c3ccc(C(F)(F)F)nn3)c2)s1` and state if its Human liver microsome Fmax is at or above 70%. True

State whether the measured Human liver microsome Fmax reaches 70%, counting equality as reaching it, for `Cc1cnc(-c2cc(O[C@@H]3CCOC3)cc(C(=O)N[C@H](C)c3cnc(C(F)(F)F)nc3)c2)s1` False

Tell me whether Human liver microsome Fmax is at least 70% here: Cc1cnc(-c2cc(OC(C)C(C)O)cc(C(=O)N[C@H](C)c3ccc(C(F)(F)F)nn3)c2)s1 (single isomer, unassigned) True
